- experimental details: Cytotoxicity against mouse WEHI1640 cells after 120 hrs by MTT assay
- Assay type: functional, cell-based
- condition description: WEHI1640, 120 h
quantity: pIC50
Please express pIC50 as -log10 of the molar concentration.

input: Consider the molecule shown here: Nc1ccc2c(c1)CN1C(=O)c3ccccc3C1=N2 What is its recorded pIC50?
output: 4.23

* * *

- study target: DNA topoisomerase 1 (Homo sapiens) (UniProt P11387)
- Sequence (P11387 whole entry): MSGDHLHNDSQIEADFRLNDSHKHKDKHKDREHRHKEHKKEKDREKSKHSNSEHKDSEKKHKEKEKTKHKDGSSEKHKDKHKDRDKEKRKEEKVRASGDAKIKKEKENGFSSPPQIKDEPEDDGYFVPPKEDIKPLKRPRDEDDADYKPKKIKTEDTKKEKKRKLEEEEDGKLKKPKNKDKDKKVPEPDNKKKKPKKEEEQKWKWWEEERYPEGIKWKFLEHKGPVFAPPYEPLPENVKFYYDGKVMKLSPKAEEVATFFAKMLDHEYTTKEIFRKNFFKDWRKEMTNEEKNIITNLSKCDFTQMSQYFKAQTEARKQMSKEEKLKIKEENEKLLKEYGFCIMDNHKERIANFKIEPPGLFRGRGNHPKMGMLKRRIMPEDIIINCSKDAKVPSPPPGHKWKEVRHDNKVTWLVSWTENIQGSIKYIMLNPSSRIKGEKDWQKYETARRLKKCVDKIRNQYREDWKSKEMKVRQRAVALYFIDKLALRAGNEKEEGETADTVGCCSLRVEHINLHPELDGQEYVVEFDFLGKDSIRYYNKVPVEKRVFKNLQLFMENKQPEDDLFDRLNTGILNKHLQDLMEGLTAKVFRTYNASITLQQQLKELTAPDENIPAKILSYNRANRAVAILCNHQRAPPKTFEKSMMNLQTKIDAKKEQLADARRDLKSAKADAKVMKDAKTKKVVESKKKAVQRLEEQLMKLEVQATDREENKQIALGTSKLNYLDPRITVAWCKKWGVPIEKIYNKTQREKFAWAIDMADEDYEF
- experimental details: Inhibition of human topoisomerase-1-mediated relaxation of supercoiled plasmid pBR322 DNA at 1 to 100 uM after 30 mins by ethidium bromide staining
The source made the active and inactive calls. No cut-off for these calls is given here. Non-standard residues stand in square brackets, D forms with d. Residues, ends and D or L forms follow the SMILES beside them. *: point of attachment. Batracylin(8-NH) = O=C1c2ccccc2C2=Nc3ccc(N*)cc3CN12; Arg(NO2) = N=C(NCCC[C@H](N)C(=O)O)N[N+](=O)[O-]
quantity: inhibition

INSERT INTO results (compound, assay_result) VALUES
  ('CC[C@H](C)[C@H](N)C(=O)NCCCC[C@H](NC(=O)[C@@H](N)[C@@H](C)O)C(=O)N1CCC[C@H]1C(=O)N[C@@H](CCCNC(=N)N[N+](=O)[O-])C(=O)Nc1ccc2c(c1)CN1C(=O)c3ccccc3C1=N2 (H-TK(Ile)P[Arg(NO2)]-{Batracylin(8-NH)})', 'inactive'),
  ('CC(C)C[C@H](N)C(=O)NCCCC[C@H](NC(=O)[C@@H](N)[C@@H](C)O)C(=O)N1CCC[C@H]1C(=O)N[C@@H](CCCNC(=N)N[N+](=O)[O-])C(=O)Nc1ccc2c(c1)CN1C(=O)c3ccccc3C1=N2 (H-TK(Leu)P[Arg(NO2)]-{Batracylin(8-NH)})', 'inactive');
